- measuredTarget: D(2) dopamine receptor (Mus musculus)
- assayExplanation: Tested in vivo for methyl phenidate-induced gnawing behavior antagonistic activity against dopamine D2 receptor in mice
- Assay type: functional, organism-based
measureName: ED50 (µmol/kg)

O=C1NCCN1CCN1CC=C(c2cn(-c3ccc(F)cc3)c3ccc(C(F)(F)F)cc23)CC1 0.37

a. O=C1NCCN1CCN1CCN(c2cn(-c3ccc(F)cc3)c3ccc(Cl)cc23)CC1
b. Cc1ccc2c(c1)c(C1CCN(CCN3CCNC3=O)CC1)cn2-c1ccc(F)cc1
c. CN1CCN(CCN2CCC(c3cn(-c4ccc(F)cc4)c4ccc(Cl)cc34)CC2)C1=O
d. O=C1NCCN1CCCN1CCC(c2cn(-c3ccc(F)cc3)c3ccc(Cl)cc23)CC1
Output the entries ranked by ED50 from maximum down to minimum. Answer format: list of labels, ordered as asked.
b, d, a, c
